readout_label: melting point

As a guide, the following entries are already answered.
| molecule | melting point |
| --- | --- |
| C#CCNC(=O)Nc1ccc(-c2ccc3c(N4CCOCC4)nc(N4CCOCC4)nc3c2)cc1 | 168 to 170 °C |
| O=C(NCc1ccco1)Nc1ccc(-c2ccc3c(N4CCOCC4)nc(N4CCOCC4)nc3c2)cc1 | 184 to 186 °C |

Kindly consider the entry below.
Endpoint output: melting point of N[C@@H](CCCCNC(=O)Nc1ccc(-c2ccc3c(N4CCOCC4)nc(N4CCOCC4)nc3c2)cc1)C(=O)O . Value?
89 to 91 °C

These measurements were taken from paper PMC9503112.
